# Read-out: CD38, CD38 (gene 952)
# protocol_notes: BSK_SAg_CD38: BioMAP Diversity Plus: SAg Assay for CD38 Biomarker Activity (AID 2283087)
# recorded_conditions: primary human HUVEC with PBMC; actives raise or lower the signal
Active and inactive are the calls of the source. Rule for the calls: active = hit-call score of the fitted dose curve at least 0.9, where 1 is the maximum; inactive = score below 0.9.
Respond using exactly one of the listed classes: Yes for active, No for inactive

Here's what some known entries look like.
>  <input_smiles>
CCCCCCCCCCCO

>  <label>
No

$$$$
>  <input_smiles>
O=C1CCC(C2CCCCC2)CC1

>  <label>
No

$$$$
>  <input_smiles>
CCCCCCCCOc1ccc(C(=O)c2ccccc2)c(O)c1

>  <label>
Yes

$$$$
>  <input_smiles>
CCCCCCCCCC(=O)O

>  <label>
No

$$$$
>  <input_smiles>
CC(=O)N1CCN(c2ccc(OC[C@H]3CO[C@](Cn4ccnc4)(c4ccc(Cl)cc4Cl)O3)cc2)CC1

>  <label>
Yes

$$$$

INPUT: Identify the outcome logged in this assay for the compound shown: `Cc1cn([C@H]2C[C@H](N=[N+]=[N-])[C@@H](CO)O2)c(=O)[nH]c1=O`
OUTPUT: No

---

# protocol_notes: Tanguay_ZF_120hpf_SNOU_legacy: (Legacy) Oregon State University Tanguay Lab 120 Hour Post-fertilization zebrafish Assay for Snout Malformation (AID 2283637)
Inconclusive results are not listed. Calls of active or inactive are those of the source. Rule for the calls: active = hit-call score of the fitted dose curve at least 0.9, where 1 is the maximum; inconclusive = response in the unintended direction; inactive = score below 0.9.
Respond using exactly one of the listed classes: active, inactive

Here's what some known entries look like.
>  <molecule>
CCCCOC(=O)CC(CC(=O)OCCCC)(OC(C)=O)C(=O)OCCCC

>  <label>
inactive

$$$$
>  <molecule>
CC(=O)N1CCN(c2ccc(OC[C@H]3CO[C@](Cn4ccnc4)(c4ccc(Cl)cc4Cl)O3)cc2)CC1

>  <label>
inactive

$$$$
>  <molecule>
CO[C@H]1/C=C/O[C@@]2(C)Oc3c(C)c(O)c4c(O)c(c(/C=N/N5CCN(C)CC5)c(O)c4c3C2=O)NC(=O)/C(C)=C\C=C\[C@H](C)[C@H](O)[C@@H](C)[C@@H](O)[C@@H](C)[C@H](OC(C)=O)[C@@H]1C

>  <label>
inactive

$$$$
>  <molecule>
c1ccc2ccccc2c1

>  <label>
inactive

$$$$
>  <molecule>
OCCO

>  <label>
inactive

$$$$
>  <molecule>
CC(C)(c1cc(Br)c(O)c(Br)c1)c1cc(Br)c(O)c(Br)c1

>  <label>
inactive

$$$$

INPUT: Identify the outcome logged in this assay for the molecule shown: OC12N=C(c3ccccc3)SC1Cc1cc(Cl)ccc12 (stereo not given)
OUTPUT: active

INPUT: Same question, `CCCCCCCCCCCC[N+](C)(C)C` this time
OUTPUT: inactive

INPUT: Same question, COCC(C)OCC(C)OCC(C)O (stereo not given) this time
OUTPUT: inactive

INPUT: Same question, `Cc1occc1C(=O)Nc1ccc(C(=O)N2CCC(F)(F)/C(=C\C(=O)N3CCC(N4CCCCC4)CC3)c3ccccc32)cc1` this time
OUTPUT: inactive

---

# System: guinea pig Dopamine Transporter (DAT), gene 100714898
# protocol_notes: NVS_TR_gDAT: NovaScreen (NVS) Transporter Assay for guinea pig Dopamine Transporter (DAT) (AID 2283369);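 note: active compounds lower bound radioligand signal relative to DMSO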
Results filed as inconclusive are left out. Calls of active or inactive are those of the source. How the source made its calls: active means hit-call score of the fitted dose curve at least 0.9, where 1 is the maximum; inconclusive means response in the unintended direction; inactive means score below 0.9.
Respond using exactly one of the listed classes: class 1 = active, class 0 = inactive

Here's what some known entries look like.
>  <input_smiles>
Cc1ccc2oc(CN(Cc3ccccc3)C(=O)Nc3c(F)cc(F)cc3F)c(-c3ccc(Cl)cc3)c2c1

>  <label>
class 0

$$$$
>  <input_smiles>
CCCCCc1ccc(N)cc1

>  <label>
class 1

$$$$
>  <input_smiles>
O=c1[nH]sc2ccccc12

>  <label>
class 1

$$$$
>  <input_smiles>
CCOC(=O)O[C@H](C)OC(=O)c1ccc2c(c1)cc(C(=O)NC1CCN(C(C)C)CC1)n2Cc1cc(-c2ccc(Cl)s2)on1

>  <label>
class 1

$$$$
>  <input_smiles>
CCCCCCCCCCCC[N+](C)(C)C

>  <label>
class 1

$$$$

INPUT: Identify the outcome logged in this assay for the compound shown: `O=C1c2ccccc2C(=O)N1CCc1noc(-c2ccc(CN3CCCCCC3)s2)n1`
OUTPUT: class 1
